biological target: T1, Recombinant human TfR1, His6-tagged (a.a. 89-760) (human, UniProt P02786 89-760); assay: SPR, TfR1 on chip
T1 construct: range 89-760; captured and coupled on an NTA chip for SPR; also called transferrin receptor 1; CD71
T1 sequence (P02786 89-760 limits assumed): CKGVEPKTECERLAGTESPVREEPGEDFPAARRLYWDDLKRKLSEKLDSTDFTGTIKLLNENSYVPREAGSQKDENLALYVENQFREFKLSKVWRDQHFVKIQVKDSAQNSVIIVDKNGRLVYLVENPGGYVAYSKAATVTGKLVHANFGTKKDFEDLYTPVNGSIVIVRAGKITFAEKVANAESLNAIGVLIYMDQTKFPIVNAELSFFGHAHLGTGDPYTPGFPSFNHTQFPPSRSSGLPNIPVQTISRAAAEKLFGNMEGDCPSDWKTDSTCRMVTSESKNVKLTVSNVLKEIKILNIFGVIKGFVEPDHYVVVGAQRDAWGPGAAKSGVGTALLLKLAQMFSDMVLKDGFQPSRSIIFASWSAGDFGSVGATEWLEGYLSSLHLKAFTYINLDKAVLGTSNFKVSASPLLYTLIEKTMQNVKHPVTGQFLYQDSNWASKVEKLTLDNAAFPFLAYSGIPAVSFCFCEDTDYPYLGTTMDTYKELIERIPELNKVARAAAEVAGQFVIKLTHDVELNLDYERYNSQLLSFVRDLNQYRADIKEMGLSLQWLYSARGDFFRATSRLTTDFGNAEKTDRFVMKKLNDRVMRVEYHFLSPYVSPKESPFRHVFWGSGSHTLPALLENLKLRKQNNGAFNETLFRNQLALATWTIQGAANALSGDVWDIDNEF
Starred links: 1 amine or outer side, 2 acyl side, 3 side chain; linkers in the order of their positions; H or OH if unused. Positions of bridges follow the written chain, without caps; N, C: chain ends. No end group written: not given here. TATB = O=C(C[*:1])N1CN(C(=O)C[*:2])CN(C(=O)C[*:3])C1
Could you mark each record yes (1) if its Kd falls strictly under 100 µM, and no (0) if it equals or exceeds it?

IN: Given the entry ACSADDWLGCISYCA (linker 2-10-14 via TATB) [BCY15471] , would its reported Kd be below 100 µM?
OUT: no (0)

IN: Moving on to the next binder: ACPQDAYLGCISWCA (linker 2-10-14 via TATB) [BCY15467]
OUT: yes (1)

Further cases:
IN: Given the entry ACSADDWLGCISWCA (3 Cys on TATB) [BCY13983] , would its reported Kd be below 100 µM?
OUT: no (0)

IN: Moving on to the next binder: ACALCNDWTLPWHHCA (3 Cys on TATA) [BCY12455]
OUT: yes (1)

IN: Moving on to the next binder: ACPPDSWQGCISYCA (linker 2-10-14 via TATB) [BCY13989]
OUT: no (0)

IN: Moving on to the next binder: ACSSDAYLGCISWCA (3 Cys on TATB) [BCY13986]
OUT: no (0)
